# TARGET_DESC: Dual specificity protein phosphatase 6 (Homo sapiens)
# ASSAY_SUMMARY: DUSP6 inhibitors restoring Erk phosphorylation by chemical complementation, primary imaging in DUSP6-transfected HeLa (AID 609);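 also: phospho-Erk level distribution per well compared with pooled transfected vehicle control wells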
# CONDITION_CONTEXT: HeLa MKP-3 transfected, phospho-Erk imaging KS statistic; at 10 µM; stronger effect = higher value; cells stimulated with TPA for 15 min
Exercise: state measured inhibition for each of the compounds provided.
One number for each entry, in %.

Recorded inhibition, per entry:
COc1ccc(-c2nn3c(C4CCCCC4)nnc3s2)cc1OC: -18.6
Clc1ccc2[nH]c3c(NCCCN4CCOCC4)ncnc3c2c1: -13.3
COc1ccc(OCC(=O)N2CCN(C(=O)c3cccc4ccccc34)CC2)cc1: 3.66
COc1cccc(/C(O)=C2/C(=O)C(=O)N(CCCN(C)C)C2c2cccc(Cl)c2)c1 (configuration not stated): 11.3
COc1ccc(C2(CN(C(C)=O)C(C)=O)CCCC2)cc1OC: 1.98

For every listed record, write down its inhibition.
1. [N-]=[N+]=CC(=O)c1ccnc(C(=O)C=[N+]=[N-])c1
2. Cc1nnc2n(Cc3ccccc3)c(=O)c3c4c(sc3n12)CN(Cc1ccccc1)CC4
3. Clc1ccccc1CN1CCc2sccc2C1
4. COCCN(CCOC)C(=O)C12CCC(C)(C(=O)C1)C2(C)C (configuration not stated)
5. N#Cc1ccc(-c2cccnc2)nc1SCC(=O)Nc1sc2c(c1C#N)CCC2
6. Cc1cc(/C=N\O)c(C)n1-c1ccncc1
7. Cn1c(=O)c2c(ncn2CCO)n(C)c1=O

Found:
21.8
-7.28
1.38
10.5
-9.66
9.82
1.38

Dear colleague, could you please provide inhibition for the compounds listed below?
1. CCN(CC)c1ncc(C)c(=O)[nH]1
2. CC[N+](C)(CC)CCOC(=O)C(O)(c1ccccc1)C1CCCCC1 (configuration not stated)
3. Cc1c(Cl)cccc1Nc1ccccc1C(=O)O
4. COCCNc1cc(C)c(C#N)c2nc3ccccc3n12
5. Oc1ccc2c(c1)C1CCCC1(N1CCOCC1)O2 (configuration not stated)
6. N#Cc1nc(-c2cccs2)oc1NCCN1CCOCC1

Found:
1: -2.69; 2: -4.44; 3: 5.42; 4: 13.9; 5: 3.42; 6: 10.9
